Values were extracted from ChEMBL document CHEMBL3421553.

Listed molecules paired with reported IC50
Tested on: A549
Assay: Antiproliferative activity against human A549 cells assessed as cell viability after 48 hrs by MTT assay
Type: functional, cell-based
Conditions: A549, 48 h
Enter your answer as a number in µM; do not include the unit.

molSmiles	IC50 (µM)
COc1cc(/C=C\c2ccc(-n3[se]c4ccccc4c3=O)cc2)cc(OC)c1	43

Note to self: IC50 recorded for "COc1ccc(/C=C/c2ccc(-n3[se]c4ccc(Cl)cc4c3=O)cc2)cc1OC" was 6.95

Data point: "COc1ccc(/C=C/c2ccc(-n3[se]c4ccccc4c3=O)cc2)cc1OC" ; IC50 = 1.53

* * *

System: A549
Test: Antiproliferative activity against human A549 cells assessed as cell viability after 48 hrs by MTT assay
Type: functional, cell-based
Conditions: A549, 48 h
Below, each entry is listed alongside its reported IC50.
Express your answer in µM, writing the number without its unit.

Per the records, this compound ( "COc1cc(/C=C/c2ccc(-n3[se]c4ccccc4c3=O)cc2)cc(OC)c1OC" ) has IC50 equal to 3.11

Quick note, IC50 for "COc1cc(/C=C/c2ccc(-n3[se]c4ccccc4c3=O)cc2)cc(OC)c1" landed at 3.73

Lab note: "O=c1c2ccccc2[se]n1-c1ccc(/C=C/c2ccccc2)cc1" gave IC50 of 23.8

Query "COc1cc(/C=C/c2ccc(-n3[se]c4cc(Cl)ccc4c3=O)cc2)cc(OC)c1" yields IC50 of 0.52

* * *

// reported pIC50 per item
Experiment: Antiproliferative activity against human Bel7402 cells assessed as cell viability after 48 hrs by MTT assay
Format: functional, cell-based
Settings: Bel-7402, 48 h
The scale used: pIC50 is minus the common logarithm of the concentration in molar units.

Some solved cases for reference:
molSmiles	readoutLabel	observedValue
O=c1c2ccccc2[se]n1-c1ccccc1	pIC50	4.17
COc1cc(/C=C/c2ccc(-n3[se]c4cc(F)ccc4c3=O)cc2)cc(OC)c1	pIC50	6.00
COc1cc(/C=C/c2ccc(-n3[se]c4cc(Cl)ccc4c3=O)cc2)cc(OC)c1	pIC50	6.10
COc1ccc(/C=C/c2ccc(-n3[se]c4ccccc4c3=O)cc2)cc1OC	pIC50	6.00
COc1cc(/C=C/c2ccc(-n3[se]c4ccccc4c3=O)cc2)cc(OC)c1	pIC50	5.46

Documented pIC50 of "COc1cc(/C=C\c2ccc(-n3[se]c4ccccc4c3=O)cc2)cc(OC)c1" : 4.44

Measured pIC50 of "COc1ccc(/C=C/c2ccc(-n3[se]c4ccc(Cl)cc4c3=O)cc2)cc1OC" : 5.21

"O=c1c2ccccc2[se]n1-c1ccc(/C=C/c2ccccc2)cc1" yielded pIC50 of 4.91

Per the records, this compound ( "Oc1ccc(/C=C/c2cc(O)cc(O)c2)cc1" ) has pIC50 equal to 4.29

* * *

Organism: Rattus norvegicus
Assay: Inhibition of rat liver TrxR assessed as increase in absorbance at 10 uM by DTNB assay
readoutLabel: inhibition

Example molecules with recorded inhibition:
molSmiles	inhibition
COc1cc(/C=C/c2ccc(-n3[se]c4cc(F)ccc4c3=O)cc2)cc(OC)c1	36.6%
COc1cc(/C=C/c2ccc(-n3[se]c4cc(Cl)ccc4c3=O)cc2)cc(OC)c1	36.4%
COc1ccc(/C=C/c2ccc(-n3[se]c4ccc(Cl)cc4c3=O)cc2)cc1OC	38.4%
O=c1c2ccccc2[se]n1-c1ccc(/C=C/c2ccccc2)cc1	22.4%

Next molecule, inhibition to be filled in.
Per the record, "COc1cc(/C=C/c2ccc(-n3[se]c4ccc(Cl)cc4c3=O)cc2)cc(OC)c1" has inhibition of 31.2%

* * *

System: A549
Experiment: Antiproliferative activity against human A549 cells assessed as cell viability after 48 hrs by MTT assay
Assay type: functional, cell-based
Conditions: A549, 48 h
readoutLabel: IC50 (µM)
Give the number; µM is assumed, so skip it.

molSmiles	unitTag	IC50
COc1cc(/C=C/c2ccc(-n3[se]c4cc(F)ccc4c3=O)cc2)cc(OC)c1	µM	1.22
COc1cccc(/C=C/c2ccc(-n3[se]c4ccccc4c3=O)cc2)c1	µM	10.4

# evaluate next
Tested system A549; IC50 recorded for "COc1cc(/C=C/c2ccc(-n3[se]c4cc(OC)c(OC)cc4c3=O)cc2)cc(OC)c1" was 52.6

* * *

Collected pIC50 values appear next to each entry.
Assay: Antiproliferative activity against human Bel7402 cells assessed as cell viability after 48 hrs by MTT assay
Assay type: functional, cell-based
Settings: Bel-7402, 48 h
Note: pIC50 values are expressed as the negative base-10 logarithm of concentration in M.

molSmiles	observedValue
COc1cc(/C=C/c2ccc(-n3[se]c4cc(OC)c(OC)cc4c3=O)cc2)cc(OC)c1	4.60
COc1cc(/C=C/c2ccc(-n3[se]c4ccccc4c3=O)cc2)cc(OC)c1OC	5.95

# compound "COc1cccc(/C=C/c2ccc(-n3[se]c4ccccc4c3=O)cc2)c1" ; its pIC50 = 4.88
